Ref: patent US20250304643A1

Biological target: human SNAP-GIPR (Homo sapiens)
Construct: host or cells: HEK293A
Sequence (P48546 22-466): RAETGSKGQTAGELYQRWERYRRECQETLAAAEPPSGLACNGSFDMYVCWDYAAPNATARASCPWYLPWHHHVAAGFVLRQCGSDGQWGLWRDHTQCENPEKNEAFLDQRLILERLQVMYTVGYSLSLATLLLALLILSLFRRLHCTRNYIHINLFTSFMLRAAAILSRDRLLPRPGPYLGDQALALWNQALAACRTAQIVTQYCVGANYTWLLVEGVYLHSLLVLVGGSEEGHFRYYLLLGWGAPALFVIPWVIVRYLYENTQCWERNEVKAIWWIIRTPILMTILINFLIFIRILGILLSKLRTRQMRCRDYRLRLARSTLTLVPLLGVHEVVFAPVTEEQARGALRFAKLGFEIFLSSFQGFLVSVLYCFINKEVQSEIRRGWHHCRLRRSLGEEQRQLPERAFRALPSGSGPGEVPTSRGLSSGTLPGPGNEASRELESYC
Type: cell-based
Set-up: unit not given beside the values
Decide using AUC ± SD alone. Strictly below 60: True. Equal to or above 60: False.

substance	category-label
H-Aib-DG-K(γGlu-C10)-FISDYST-Aib-LDNLAARDFINWLIQTKITK-OH [Compound no. 24]	False
H-Aib-DG-K(γGlu-C16 diacid)-FISDYST-Aib-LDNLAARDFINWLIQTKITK-OH [Compound no. 25]	True
H-Aib-DGTFISDY-K(γGlu-C16)-TILDNLAARDFINWLIQTKITK-OH [Compound no. 11]	True
H-Aib-DGTFISDY-K(γGlu-C16)-TAib-LDNLAARDFINWLIQTKITKNDWKHNITQ-OH [Compound no. 37]	True
H-Aib-DGTFISDY-K(γGlu-C10)-TILDKLAARDFIEWLIATKITK-OH [Compound no. 31]	True

Q. In the record for YAEGTFISDYSIAMDKIHQQDFVNWLLAQKGKKNDWKHNITQ [hGIP, reference compound] , is AUC ± SD less than 60?
A. False

Q. In the record for H-Aib-DGTFISDY-K(γGlu-C16)-T-Aib-LDALAARDFIEWLIQTKITK-OH [Compound no. 33] , is AUC ± SD less than 60?
A. True
